- target-or-system: UniProt:Q9NR96
- Sequence (Q9NR96 26-1032): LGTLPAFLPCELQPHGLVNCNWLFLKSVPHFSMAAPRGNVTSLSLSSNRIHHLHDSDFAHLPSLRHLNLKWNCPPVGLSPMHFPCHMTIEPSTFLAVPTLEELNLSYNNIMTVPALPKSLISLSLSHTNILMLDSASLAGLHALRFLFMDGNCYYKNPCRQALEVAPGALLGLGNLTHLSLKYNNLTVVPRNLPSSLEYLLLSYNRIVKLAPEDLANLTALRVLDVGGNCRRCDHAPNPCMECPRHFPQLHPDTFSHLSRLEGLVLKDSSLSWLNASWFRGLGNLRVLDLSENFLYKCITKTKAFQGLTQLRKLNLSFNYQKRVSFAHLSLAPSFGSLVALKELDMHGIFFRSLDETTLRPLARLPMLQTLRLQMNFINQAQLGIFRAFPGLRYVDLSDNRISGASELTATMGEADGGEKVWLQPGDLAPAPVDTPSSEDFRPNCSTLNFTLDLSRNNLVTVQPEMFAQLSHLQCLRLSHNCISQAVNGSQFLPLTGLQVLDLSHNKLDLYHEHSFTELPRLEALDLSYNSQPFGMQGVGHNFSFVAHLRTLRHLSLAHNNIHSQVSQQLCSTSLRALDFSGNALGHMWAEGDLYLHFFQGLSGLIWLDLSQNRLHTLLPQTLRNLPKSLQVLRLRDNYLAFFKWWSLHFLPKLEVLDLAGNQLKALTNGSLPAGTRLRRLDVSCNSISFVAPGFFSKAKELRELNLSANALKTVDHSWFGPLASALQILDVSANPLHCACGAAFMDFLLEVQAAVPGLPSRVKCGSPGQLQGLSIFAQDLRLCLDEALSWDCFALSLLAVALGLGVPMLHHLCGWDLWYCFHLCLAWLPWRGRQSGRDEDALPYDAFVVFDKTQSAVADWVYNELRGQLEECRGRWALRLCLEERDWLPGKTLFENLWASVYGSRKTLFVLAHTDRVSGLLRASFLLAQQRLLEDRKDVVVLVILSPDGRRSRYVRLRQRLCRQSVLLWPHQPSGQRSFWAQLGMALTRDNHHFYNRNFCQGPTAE
- protocol-summary: TLR9 inhibition reporter assay (HEK-Blue SEAP);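 note: SEAP driven by an IFN-β minimal promoter with NF-κB and AP-1 sites, read after 22 h, compounds dosed 0.05 nM–50 µM, inhibition scaled between agonist plus DMSO and reference-inhibitor wells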
- settings: read-out: TLR9 IC50; HEK-Blue human TLR9 cells, ODN2006 5 nM
readout-name: IC50 (µM)

>  <compound-string>
Cc1c(-c2[nH]c3ccc(N4CCN(C(=O)CN5CCC(CO)CC5)CC4)nc3c2C(C)C)cn2ncnc2c1C

>  <readout-name>
IC50

>  <numeric-result>
9.25

$$$$
>  <compound-string>
Cc1c(-c2[nH]c3ccc(N4[C@@H]5CC[C@H]4CN(C(=O)CN(CCO)C(C)(C)C)C5)nc3c2C(C)C)cn2ncnc2c1C

>  <readout-name>
IC50

>  <numeric-result>
10.1

$$$$
>  <compound-string>
Cc1c(-c2[nH]c3ccc(N4[C@H](C)CN(C(C)C)C[C@H]4C)nc3c2C(C)C)cn2ncnc2c1C

>  <readout-name>
IC50

>  <numeric-result>
8.89

$$$$
>  <compound-string>
Cc1c(-c2[nH]c3ccc(N4C[C@@H](C)N(C(=O)CN5CC6(COC6)C5)C[C@@H]4C)nc3c2C(C)C)cn2ncnc2c1C

>  <readout-name>
IC50

>  <numeric-result>
8.44

$$$$
>  <compound-string>
Cc1c(-c2[nH]c3ccc(N4CCN(C(=O)CN(C)C(C)(C)C)CC4)nc3c2C(C)C)cn2ncnc2c1C

>  <readout-name>
IC50

>  <numeric-result>
9.04

$$$$
>  <compound-string>
Cc1c(-c2[nH]c3ccc(N4C[C@@H](C)NC[C@H]4C)nc3c2C(C)C)cn2ncnc2c1C

>  <readout-name>
IC50

>  <numeric-result>
7.23

$$$$
>  <compound-string>
Cc1c(-c2[nH]c3ccc(N4[C@@H]5CC[C@H]4CN(C(=O)CN(C)C(C)(C)C)C5)nc3c2C(C)C)cn2ncnc2c1C

>  <readout-name>
IC50

>  <numeric-result>
7.23

$$$$
>  <compound-string>
Cc1c(-c2[nH]c3ccc(N4CCN(C(=O)CNC(C)(C)C)CC4)nc3c2C(C)C)cn2ncnc2c1C

>  <readout-name>
IC50

>  <numeric-result>
12.6

$$$$
>  <compound-string>
Cc1c(-c2[nH]c3ccc(N4CCN(C(=O)CN(C)C(C)(C)C)C[C@@H]4C)nc3c2C(C)C)cn2ncnc2c1C

>  <readout-name>
IC50

>  <numeric-result>
12

$$$$
